SYSTEM_UNDER_TEST: Delta-type opioid receptor (Mus musculus, UniProt P32300)
Sequence (P32300 whole entry): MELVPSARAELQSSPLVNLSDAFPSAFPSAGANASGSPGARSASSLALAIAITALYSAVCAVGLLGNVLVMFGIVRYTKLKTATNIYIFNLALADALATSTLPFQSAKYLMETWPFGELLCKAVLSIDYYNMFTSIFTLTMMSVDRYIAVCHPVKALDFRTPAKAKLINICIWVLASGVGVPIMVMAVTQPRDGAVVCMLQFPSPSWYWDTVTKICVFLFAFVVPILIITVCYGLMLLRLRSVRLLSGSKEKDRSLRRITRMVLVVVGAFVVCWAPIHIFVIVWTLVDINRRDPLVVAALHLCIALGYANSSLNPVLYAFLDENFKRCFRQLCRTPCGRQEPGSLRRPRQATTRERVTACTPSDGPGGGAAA
ASSAY_PROTOCOL: Antagonist activity at delta opioid receptor in mouse vas deferens assessed as inhibition of electrically-stimulated contraction
Format: functional, tissue-based
PROTOCOL_CONDITIONS: read-out: pA2 (converted)
Starred links: 1 amine or outer side, 2 acyl side, 3 side chain; linkers in the order of their positions; H or OH if unused. Non-standard residues stand in square brackets, D forms with d. Residues, ends and D or L forms follow the SMILES beside them. *: point of attachment. Dmt = Cc1cc(O)cc(C)c1C[C@H](N)C(=O)O; εLys = N[C@@H](CCCCN[*:1])C(=O)[*:2]; Tic = O=C(O)[C@@H]1Cc2ccccc2CN1; NHBn = c1ccc(CN*)cc1; NHPh = c1ccc(N*)cc1
MEASUREMENT_LABEL: Kb (nM)
Your answer should be a plain number; it is taken to be in nM.

Requested read-out: Kb. Entry: CC(=O)N[C@@H](CCCCNC(=O)[C@@H]1Cc2ccccc2CN1C(=O)[C@@H](N)Cc1c(C)cc(O)cc1C)C(=O)NCc1ccccc1 8.51

// lookup Kb for Cc1cc(O)cc(C)c1C[C@H](N)C(=O)N1Cc2ccccc2C[C@H]1C(=O)NCCCC[C@H](N)C(=O)Nc1ccccc1 (H-[Dmt]-[Tic]-[εLys]-NHPh) 12

Recorded Kb for Cc1cc(O)cc(C)c1C[C@H](N)C(=O)N1Cc2ccccc2C[C@H]1C(=O)NCCCC[C@H](NC(=O)OCc1ccccc1)C(=O)NCc1ccccc1 , please? 5.37

Endpoint output: Kb of Cc1cc(O)cc(C)c1C[C@H](N)C(=O)N1Cc2ccccc2C[C@H]1C(=O)NCCCC[C@H](N)c1nc2ccccc2[nH]1 . Value? 8.13

Field request: Kb | item: CC(=O)N[C@@H](CCCCNC(=O)[C@@H]1Cc2ccccc2CN1C(=O)[C@@H](N)Cc1c(C)cc(O)cc1C)c1nc2ccccc2[nH]1 7.59

// query Kb value for entry Cc1cc(O)cc(C)c1C[C@H](N)C(=O)N1Cc2ccccc2C[C@H]1C(=O)NCCCC[C@H](NC(=O)OCc1ccccc1)c1nc2ccccc2[nH]1 15.1

What value of measured Kb is listed for CC(=O)N[C@@H](CCCCNC(=O)[C@@H]1Cc2ccccc2CN1C(=O)[C@@H](N)Cc1c(C)cc(O)cc1C)C(=O)Nc1ccccc1 ? 6.61

Entry Cc1cc(O)cc(C)c1C[C@H](N)C(=O)N1Cc2ccccc2C[C@H]1C(=O)NCCCC[C@H](N)C(=O)NCc1ccccc1 (H-[Dmt]-[Tic]-[εLys]-NHBn) : reported Kb = ? 15.5

Which Kb is reported for this compound? Cc1cc(O)cc(C)c1C[C@H](N)C(=O)N1Cc2ccccc2C[C@H]1C(=O)NCCCC[C@H](NC(=O)OCc1ccccc1)C(=O)Nc1ccccc1 5.89

====

SYSTEM_UNDER_TEST: Mu-type opioid receptor (Cavia porcellus, UniProt P97266)
Sequence (P97266 whole entry): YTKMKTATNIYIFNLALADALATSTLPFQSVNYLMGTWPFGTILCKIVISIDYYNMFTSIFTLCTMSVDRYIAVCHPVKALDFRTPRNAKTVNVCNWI
ASSAY_PROTOCOL: Agonist activity at mu opioid receptor in Hartley guinea pig ileum assessed as inhibition of electrically-stimulated contraction
Starred links: 1 amine or outer side, 2 acyl side, 3 side chain; linkers in the order of their positions; H or OH if unused. Non-standard residues stand in square brackets, D forms with d. Residues, ends and D or L forms follow the SMILES beside them. *: point of attachment. Dmt = Cc1cc(O)cc(C)c1C[C@H](N)C(=O)O; εLys = N[C@@H](CCCCN[*:1])C(=O)[*:2]; Tic = O=C(O)[C@@H]1Cc2ccccc2CN1; NHBn = c1ccc(CN*)cc1; NHPh = c1ccc(N*)cc1
MEASUREMENT_LABEL: pIC50
// pIC50 here means minus log10 of the molar concentration (mol/L)

What pIC50 value was documented for this compound, Cc1cc(O)cc(C)c1C[C@H](N)C(=O)N1Cc2ccccc2C[C@H]1C(=O)NCCCC[C@H](N)c1nc2ccccc2[nH]1 ? 6.36

Please report the recorded pIC50 for Cc1cc(O)cc(C)c1C[C@H](N)C(=O)N1Cc2ccccc2C[C@H]1C(=O)NCCCC[C@H](NC(=O)OCc1ccccc1)C(=O)Nc1ccccc1 . 6.15

Which measured pIC50 value corresponds to Cc1cc(O)cc(C)c1C[C@H](N)C(=O)N1Cc2ccccc2C[C@H]1C(=O)NCCCC[C@H](NC(=O)OCc1ccccc1)c1nc2ccccc2[nH]1 ? 6.21

Consider the compound Cc1cc(O)cc(C)c1C[C@H](N)C(=O)N1Cc2ccccc2C[C@H]1C(=O)NCCCC[C@H](N)C(=O)Nc1ccccc1 (H-[Dmt]-[Tic]-[εLys]-NHPh) and give its measured pIC50. 6.29

// query pIC50 value for entry CC(=O)N[C@@H](CCCCNC(=O)[C@@H]1Cc2ccccc2CN1C(=O)[C@@H](N)Cc1c(C)cc(O)cc1C)c1nc2ccccc2[nH]1 6.21

What value of measured pIC50 is listed for CC(=O)N[C@@H](CCCCNC(=O)[C@@H]1Cc2ccccc2CN1C(=O)[C@@H](N)Cc1c(C)cc(O)cc1C)C(=O)Nc1ccccc1 ? 6.31

pIC50 for CC(=O)N[C@@H](CCCCNC(=O)[C@@H]1Cc2ccccc2CN1C(=O)[C@@H](N)Cc1c(C)cc(O)cc1C)C(=O)NCc1ccccc1 ? 5.70

Give the measured pIC50 of Cc1cc(O)cc(C)c1C[C@H](N)C(=O)N1Cc2ccccc2C[C@H]1C(=O)NCCCC[C@H](N)C(=O)NCc1ccccc1 (H-[Dmt]-[Tic]-[εLys]-NHBn) . 6.26

Could you tell me which pIC50 is on file for Cc1cc(O)cc(C)c1C[C@H](N)C(=O)N1Cc2ccccc2C[C@H]1C(=O)NCCCC[C@H](NC(=O)OCc1ccccc1)C(=O)NCc1ccccc1 ? 5.84

====

SYSTEM_UNDER_TEST: Opioid receptors; mu & delta (Rattus norvegicus) (UniProt P33533+P33535)
Sequence (P33533 whole entry, looked up): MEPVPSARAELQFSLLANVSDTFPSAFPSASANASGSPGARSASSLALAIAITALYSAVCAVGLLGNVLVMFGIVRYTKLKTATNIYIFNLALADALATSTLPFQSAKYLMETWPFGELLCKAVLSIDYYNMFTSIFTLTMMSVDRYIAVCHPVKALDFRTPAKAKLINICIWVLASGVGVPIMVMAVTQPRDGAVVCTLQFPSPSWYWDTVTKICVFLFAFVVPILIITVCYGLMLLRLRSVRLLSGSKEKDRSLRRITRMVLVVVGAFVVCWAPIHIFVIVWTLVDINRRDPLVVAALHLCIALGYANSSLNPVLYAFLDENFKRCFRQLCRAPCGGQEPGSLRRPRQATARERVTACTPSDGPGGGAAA
Sequence (P33535 whole entry, looked up): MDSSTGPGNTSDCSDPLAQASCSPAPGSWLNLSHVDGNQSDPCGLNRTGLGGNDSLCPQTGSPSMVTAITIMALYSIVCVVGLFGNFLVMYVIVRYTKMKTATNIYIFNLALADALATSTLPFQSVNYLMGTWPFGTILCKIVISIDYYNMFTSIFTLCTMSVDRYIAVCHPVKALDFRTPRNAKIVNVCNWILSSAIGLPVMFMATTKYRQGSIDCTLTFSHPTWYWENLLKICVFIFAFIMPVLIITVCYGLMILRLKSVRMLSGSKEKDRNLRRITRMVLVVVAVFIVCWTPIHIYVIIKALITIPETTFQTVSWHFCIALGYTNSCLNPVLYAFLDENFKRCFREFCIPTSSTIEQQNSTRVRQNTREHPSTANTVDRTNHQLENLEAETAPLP
ASSAY_PROTOCOL: Selectivity ratio of Ki for mu opioid receptor to Ki for delta opioid receptor
Assay type: protein assay
Decision: Ratio Ki compared against 10; not below it gives TRUE, below it gives FALSE.

Identify whether the reported Ratio Ki of the following compound is 10 or greater: Cc1cc(O)cc(C)c1C[C@H](N)C(=O)N1Cc2ccccc2C[C@H]1C(=O)NCCCC[C@H](NC(=O)OCc1ccccc1)C(=O)Nc1ccccc1 FALSE

Is Ratio Ki for Cc1cc(O)cc(C)c1C[C@H](N)C(=O)N1Cc2ccccc2C[C@H]1C(=O)NCCCC[C@H](NC(=O)OCc1ccccc1)C(=O)NCc1ccccc1 at or above 10? FALSE

Does the reported Ratio Ki for Cc1cc(O)cc(C)c1C[C@H](N)C(=O)N1Cc2ccccc2C[C@H]1C(=O)NCCCC[C@H](NC(=O)OCc1ccccc1)c1nc2ccccc2[nH]1 fall at or above the 10 mark? FALSE

Is it the case that CC(=O)N[C@@H](CCCCNC(=O)[C@@H]1Cc2ccccc2CN1C(=O)[C@@H](N)Cc1c(C)cc(O)cc1C)C(=O)Nc1ccccc1 has Ratio Ki reaching or exceeding 10? TRUE

Check the entry CC(=O)N[C@@H](CCCCNC(=O)[C@@H]1Cc2ccccc2CN1C(=O)[C@@H](N)Cc1c(C)cc(O)cc1C)c1nc2ccccc2[nH]1 : does Ratio Ki equal or exceed 10? FALSE

Please tell me: is the compound CC(=O)N[C@@H](CCCCNC(=O)[C@@H]1Cc2ccccc2CN1C(=O)[C@@H](N)Cc1c(C)cc(O)cc1C)C(=O)NCc1ccccc1 at or over 10 in terms of Ratio Ki? TRUE

====

SYSTEM_UNDER_TEST: Mu-type opioid receptor (Rattus norvegicus)
Sequence (P33535 whole entry): as the sequence (P33535 whole entry, looked up) above
Starred links: 1 amine or outer side, 2 acyl side, 3 side chain; linkers in the order of their positions; H or OH if unused. Non-standard residues stand in square brackets, D forms with d. Residues, ends and D or L forms follow the SMILES beside them. *: point of attachment. Dmt = Cc1cc(O)cc(C)c1C[C@H](N)C(=O)O; εLys = N[C@@H](CCCCN[*:1])C(=O)[*:2]; Tic = O=C(O)[C@@H]1Cc2ccccc2CN1; NHBn = c1ccc(CN*)cc1; NHPh = c1ccc(N*)cc1
Provide the reported Ki of each item.
Give your result in nM as a bare value.

Report Ki for Cc1cc(O)cc(C)c1C[C@H](N)C(=O)N1Cc2ccccc2C[C@H]1C(=O)NCCCC[C@H](N)C(=O)Nc1ccccc1 (H-[Dmt]-[Tic]-[εLys]-NHPh) please. 0.89

Which Ki value belongs to CC(=O)N[C@@H](CCCCNC(=O)[C@@H]1Cc2ccccc2CN1C(=O)[C@@H](N)Cc1c(C)cc(O)cc1C)c1nc2ccccc2[nH]1 ? 0.99

// query Ki value for entry Cc1cc(O)cc(C)c1C[C@H](N)C(=O)N1Cc2ccccc2C[C@H]1C(=O)NCCCC[C@H](NC(=O)OCc1ccccc1)C(=O)Nc1ccccc1 2.67

// Ki lookup, key: Cc1cc(O)cc(C)c1C[C@H](N)C(=O)N1Cc2ccccc2C[C@H]1C(=O)NCCCC[C@H](N)c1nc2ccccc2[nH]1 1.02

Any idea what Ki was measured for CC(=O)N[C@@H](CCCCNC(=O)[C@@H]1Cc2ccccc2CN1C(=O)[C@@H](N)Cc1c(C)cc(O)cc1C)C(=O)NCc1ccccc1 ? 3.43

Look up Ki for this molecule: Cc1cc(O)cc(C)c1C[C@H](N)C(=O)N1Cc2ccccc2C[C@H]1C(=O)NCCCC[C@H](NC(=O)OCc1ccccc1)c1nc2ccccc2[nH]1 2.78

Bench note: what Ki did Cc1cc(O)cc(C)c1C[C@H](N)C(=O)N1Cc2ccccc2C[C@H]1C(=O)NCCCC[C@H](N)C(=O)NCc1ccccc1 (H-[Dmt]-[Tic]-[εLys]-NHBn) show? 0.6

Name the reported Ki value associated with the molecule CC(=O)N[C@@H](CCCCNC(=O)[C@@H]1Cc2ccccc2CN1C(=O)[C@@H](N)Cc1c(C)cc(O)cc1C)C(=O)Nc1ccccc1 2.57

So what's the measured Ki for this one? Cc1cc(O)cc(C)c1C[C@H](N)C(=O)N1Cc2ccccc2C[C@H]1C(=O)NCCCC[C@H](NC(=O)OCc1ccccc1)C(=O)NCc1ccccc1 3.15
